test: yeast display, Sf9 membrane polyspecificity reagent, FACS + sequencing; frameworks hold sequencing errors
MEASURED_ATTRIBUTE: polyreactivity (PSR sort gate)

1) QVQLVESGGGLVQAGGSIRLTCAASGTIFPYYAKGWYRQAPGKERELVAAISDSGDSTYYADSVKGRFTISRDNAKNTVYLQMNSLKPEDTAVYYCAADQTSSYYDPWGDYWGQGTQVTVSS ... low polyreactivity
2) QVQLVESGGGLVQAGGSLRLSCAASGRIFYYNSMGWYRQAPGKERELVASITGSGGSTYYADSVKGRFTISRDNAKNTVYLQMNSLKPEDTAVYYFAKREYLYPFYYVAKYDYWGQGTQVTVSS ... low polyreactivity
3) QVQLEESGGGLVQAGGSLRLSCAASGFTFKRYAMGSYRQAPGKEREFVAAITRGGGSTYYADSVKGRFTISRDNAKNSVYLQMNSLKPEDTAVYYCAADPQYTIRDYWGQGTQVTVSS ... high polyreactivity
4) QVQLVESGGGLVQAGRSLRLSCAASGFTFYYNAMGWYRQAPGKERELVAAISSGGSTYYADSVKGRFTISRDNAKNTVYLQMNSLKPEDTAVYYCAADSLYYRYDFWGQGTQVTVSS ... low polyreactivity
5) QVQLVESGGGLVQAGGSLRLSCAASGRIFISNAKGWYIQAPGKERELVAAITWIGDRTYYADSVKGRFTISRDNAKITVYLEMNSLKPEDTAVYYCNRVTSRVSGRYSYEYWGQVTQVTVSS ... high polyreactivity

###

experiment: yeast display, Sf9 membrane polyspecificity reagent, FACS + sequencing; frameworks hold sequencing errors
MEASURED_ATTRIBUTE: polyreactivity (PSR sort gate)

1. QVQLVESGGGLVQAGGSLRLSCAASGYTFFYYAMGWYRQAPGKERELVATISGNGGRTYYADSVKGRFTISRDNAKKTVYLQMNSLKPEDTAVYYCAALLYIRSVGYDYWGQGTQVTVSS ... low polyreactivity
2. QVELVESGGGLDQAGGSLRLSCAASGFIFRWYAMGWYRQAPGKERELVAAITRGTRTNYADSVKGRFTISRDNAKNTVYLQMNSLKPEDTAVYYCAADFSRDAYRNYYYWGQGTQVTVSS ... high polyreactivity
3. QVQLVESGGGLVQAGGSLRLSCAASGSTFAIYAMGWYRQAPGKERELVASISGGSTNYADSVKGRFTISRDNAKNTVYLQMNSLKPEDTAVYYCAARGALHHWYRYDYWGQVTQVTVSS ... low polyreactivity
4. QVQLVESGGGLVQAGGSLRLSCAASGSNFDVNAMGWYRQAPGKERELVAAISDSGGSTYYADSVKGRFTISRDNAKNTVYLQMNSLKPEDTAVYYCNADWSWYNYYDFDYWGQGTQVTVSS ... low polyreactivity
5. QVQLVESGGGLVQAGGSLRLSCAASGLTFWRYVMGWYRQAPGKERELVATISIGGSTNYADSVKGRVTISRDNAKNTVYLQMNSLKPEDTAVYYCAAKFRGDVFPYYYWGQGTQVTVSS ... high polyreactivity
6. QVQLVESGGGLVQAGGSLRLSCAASGSSFPGYAMGWYRKAPGKERELVATSTYSDGSTYYADSVKGRFTISRDNAKNTVYLQMNSLKPEDTAVYYCAVTYWWYYGYDYWGQGTQVTVSS ... low polyreactivity
7. QVQRVDSGGGLVQAGGSLRLSCAASGSTFPGYAMGWYRQAPGKERELVAAISKRGGSTRYADSVKGRFTISRDNAKNTVYLQMNSLKPEDTAVYYCAASYSYSGSGGGYWGQVTQVTVSS ... high polyreactivity
8. QVQLVESGGGLVQAGGSLRLSCAASGSIFFYAMGWYRQAPGKERELVADITYTGGSKYADSVKGRFSISRDNAKNTVYLQMNSLKTEDTAVYYCAKLDGGLFDYWGQGTQVTVSS ... low polyreactivity
9. QVQLVESGGGLFQAGGSLRLSCAASGSIFWSYAMGWYRQAPGKERELVAAISSGGSTNYADSVKGRFTISRDNAKNTVYLQMNSLKPEDTAVYYCNAVGAKGYVKGFDYWGQGTQVTVSS ... low polyreactivity
10. QVQLVESGGGLVQAGGSLRLSCAASGGIFKAYAMGWYRQAPGKEREFFAAITSSGGRTSYADSVKGRFTISRDNAKNNVYLQKNSLKQEDTAVYYCAAYGDGIVNSWDSYSEMDYWGQGTQVTVSS ... low polyreactivity
11. QVHLVESGGGLVQAGGSLRLSCAASGLILGHYTMGWYRQAPGKERELVAAITSDGGSTYYADSVMGRFTISRDNAKNTVYLQMNSLKPEDTAVFYCAADLPAYTGYESDYWGQGTQVTGSS ... low polyreactivity

###

test: yeast display, Sf9 membrane polyspecificity reagent, FACS + sequencing; frameworks hold sequencing errors
MEASURED_ATTRIBUTE: polyreactivity (PSR sort gate)

1. QVQLVESGGGLVQAGGSLRLSCAASGSIFGYYAMGWYRQAPGKEREFDADINSRDGGTYYADSVKGRFTISRDNAKNTVYLQMNSLKPEDTAVYYCAAPYYAAWVAVAIEYDYWGQGTQVTVSS ... low polyreactivity
2. QVQLVESGGGLVQAGGSLRLSCAASGSTLAKYAMGWYRQAPGKERELVAAISRSGGRTYYADSEKGRFTISRDNAKNSVYLQMNSLKPEETAVYYCAARARSSRTYHDDYWGQGTQVTVSS ... high polyreactivity
3. QGQLVESGGGLVQAGGSLRLSCAASGSTFPTNSMGWYRPAPGNDRELVAAITGGASTYYADSVKGRFTISRDNAKNTVYLQMNSLKPEDTAVYYCAADDSWFYYGYGYWGQGTQVTVSS ... low polyreactivity
4. QVQLVESGGGLVQAGGSLRLSCAASGFIFRTYAMGWYRQAPGKERELVATITGDGSTNYADSVKGRFTISRDNAKNTVYLQMNSLKPEDTAVYYCSRDDRLAGDYWGQGTQVTVSS ... low polyreactivity
5. QVQLVESGGGLVQAGGSLRLSCAASGSIFNSYAMGWYRQAPGKERELVAAISGSGTRTYYADSVKGRFTISRDNAKNTVYLQMNSLKPEDTAVYYCAGYGYWGQGTQVNVSS ... high polyreactivity
6. QVQLVESGGGLVQAGGSLRLICAASGFIFFINDMGWYRQAPGKEREWVAAISWSGGSTYYADSVKGRFTISRDNEKNNFYIQMNSLKAEETAGYYFKTDVPTAQYDYWGQGTQVTVSS ... low polyreactivity
7. QVQLVESGGGLVQAGGSLRLSCGASGFIFLKNAMGWYRQAPGKARELVAAITRSGDITYYADSVKGRFTISRDNAKNTVYLKMNSLKPEDTAVYYCATTREFPSYDSWGQGTQVTVSS ... low polyreactivity
8. QVQLVESGGGLVQAGGSLRLSCAASGLTFTSYPMVWYRQAPGKERELVAAIDWSGGRTYYADSVKGRFTISRDNAKNTVYLQMNSLKPEDTAVYYCAAYSRNRALRFNYWGQGTQVTVSS ... high polyreactivity
9. QVQLVESGGGLVQAGGSLRLSCAASGFIFGDYVMGRYRQAPGKEREVVAAITRRGGRTNYADSVKGRFTISRDNAKNTVFLQMNSLIPEDNAVFYCNAQSGVVADDYWGQGSQVTVSS ... high polyreactivity
10. QVQLVESGGGLVQAGGSLRLSCAASGSTFADYAMGWYRQAPGKERELVAAITSSGGDTYYADSVKGRFTISRDNAKNTVYLQMNSLKPEDTAVYYCAVVDTLYDSKYDYWGQGTQVTVSS ... low polyreactivity
11. QVQLVESGGGLVQAGGSLRLSCAASGSTFVYYDMGGYRPAPGKERELVADISDSGGSTNYADSVKGRFTISRDNAKNTVYLHMNSLKPEDTAVYYCAADSADPTEYDYWGQGTQVTVSS ... low polyreactivity
12. QVQLVESAGGLVQAGGSLRLSCAAYGRTLAKYAMGWYRQAPGKERELVAAITRDGSTNYADSVKGRFTISRDNAKNTVYLQMNSLKPEDTAVYYCATRSYWYRVYYWGQGTQVTVSS ... high polyreactivity
13. QVQLVESGGGLVQAGGSLRLSCAASGSTFRGYVMGWYRQAPGQERELVAVINSSGGRTYYADSVKGRFTISRDNAKNTVYLQMNSLKPEDTAVYYCAARVLQYSGYYYWGQGTQVTVSS ... high polyreactivity
14. QVQLVESGGGLVQAGGSLRLSCAASGRTFDVYAMGWYRQAPGKERELVAVIRGRAGSTYYADSVKGRFTISRDNAKNTVYLQMNSLKPEDTAVYYCAAAKYVRRGLRAWRGDEYDYWGQGTQVTVSS ... high polyreactivity
15. QVQLVESGGGLVQAGGSLRLSCAASGYIYSVNAMGWYRQAPGKERELVAAIRGSGGSTFYADSVKGRFTISRDNAKNTVYLQMNSLKPEDTAVSYCAASFLGSFTDWVYSVYEYGSWGQGTQVTVSS ... low polyreactivity
16. QVQLVESGGGLVQAGGSLRLSCAASGSIFASNAMGWYRQEPGKEREFVAAITWRTDRTYYADSVKGRFTISRDNEKNTVYLQMNSLKPEDTAGYYCAADTWFYRFYYWGQGTQVTVSS ... high polyreactivity
17. QVQLVESGGGLVQAGGSLRLSCAASGSTSQINAMGWYRQAPGKERELVAAITWSTGTTYYADSVKGRFTISRDNAKNTVYLQMTSLKPEDTAVYYCAAERAILSSDKQSLWRFDYWGQGTQVTVSS ... low polyreactivity
18. QVQLEESGGGVVQAGGSLRISCAASGIIFYRYTMGWYRQAPGKERELVAAIASRGGSTYYADSVKGRFTISRDNAKNTVYLQMNSLKPEDTAVYYCAAGARYGKVRYGYWGQGTQVTVSS ... high polyreactivity
19. QVQLVESGGGLVQAGGSLRLSCDASGFTFYSYARGWYRQAPGKEREFVASISRSGGSTYYADSVKGRFTISRDNAKYTVYLQMNSLKAEDTEVYYCAARSVRDRDGGDYWGQGTQVTVSS ... high polyreactivity
20. QVQLVESGGGLVQAGGSLRLSCAASGRTFQGNTMGWYRQAPGKEREFVAAMSSRGGSTYYADSVKGRFTISRDNAKNTVYLQMNRLKPEDTAVYYCDARFSHGYDYWGQGTQVTVSS ... high polyreactivity
21. QVQLVESGGGLVQAGVSLRLSCAASGSTFSNYAMGWYRQAPGKERELVAGIDWSGGSTYYADSVKGRFTISRDNEKITVYLQMNSLKPEDTAVYYCAKRVWYHGRKLRGYYWGQGTQVTVSS ... low polyreactivity

Values from the nanobody polyreactivity screen of Harvey et al. (2022)
